Target: T1, LTK_(TG–EGFL) (human LTK residues 63–420) (human, UniProt P29376 63-420)
T1 sequence (looked up): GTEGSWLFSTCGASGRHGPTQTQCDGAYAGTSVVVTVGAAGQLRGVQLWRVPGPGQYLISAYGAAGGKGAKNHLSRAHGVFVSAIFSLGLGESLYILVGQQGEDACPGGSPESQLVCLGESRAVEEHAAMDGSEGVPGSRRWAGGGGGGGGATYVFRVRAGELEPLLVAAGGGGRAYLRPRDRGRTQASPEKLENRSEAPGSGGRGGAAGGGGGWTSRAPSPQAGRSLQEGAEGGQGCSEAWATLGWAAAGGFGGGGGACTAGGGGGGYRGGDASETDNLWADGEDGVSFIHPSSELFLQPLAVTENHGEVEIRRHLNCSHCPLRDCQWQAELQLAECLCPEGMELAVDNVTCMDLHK
Assay: ITC
Measured Parameter: pKd
pKd here: minus log base 10 of the concentration, concentration in moles per litre.

Suppose we examine the binder ALKAL1 (residues 57–129, conserved C-terminal domain) (ligand, human, UniProt Q6UXT8 57-129, looked up) PSGSRSAEIFPRDSNLKDKFIKHFTGPVTFSPECSKHFHRLYYNTRECSTPAYYKRCARLLTRLAVSPLCSQT ; what pKd value has been reported?
8.00

Suppose we examine the binder ALKAL2 (residues 78–152, conserved C-terminal domain) (ligand, human, UniProt Q6UX46 78-152, looked up) PSPEQRVEIVPRDLRMKDKFLKHLTGPLYFSPKCSKHFHRLYHNTRDCTIPAYYKRCARLLTRLAVSPVCMEDKQ ; what pKd value has been reported?
7.26
